- TARGET_OR_TEST_SYSTEM: T1, recombinant SARS-CoV-2 Spike RBD domain, BA.4/5 variant (SARS-CoV-2)
- T1 construct: also called RBD BA.4/5 variant
- TEST_NAME: competition ELISA, blocking of RBD binding to ACE2 ectodomain
Task for the reader: assign each of the following binders its reported Blocking %.
Only the number, expressed in %, is required.

The measured Blocking % associated with SPK002M A1 antibody (antibody, human IgG1, kappa, V domains shown) VH: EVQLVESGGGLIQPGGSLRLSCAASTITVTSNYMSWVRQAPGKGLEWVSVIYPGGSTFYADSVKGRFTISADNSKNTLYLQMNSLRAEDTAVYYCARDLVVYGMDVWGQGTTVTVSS VL: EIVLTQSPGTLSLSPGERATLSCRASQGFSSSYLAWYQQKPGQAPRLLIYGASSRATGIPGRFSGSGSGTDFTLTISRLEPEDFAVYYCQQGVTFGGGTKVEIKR reads 97

The measured Blocking % associated with SPK002M C1 antibody (antibody, human IgG1, kappa, V domains shown) VH: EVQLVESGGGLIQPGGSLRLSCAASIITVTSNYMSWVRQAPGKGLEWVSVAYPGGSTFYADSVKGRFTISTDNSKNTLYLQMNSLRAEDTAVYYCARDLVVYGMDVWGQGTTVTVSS VL: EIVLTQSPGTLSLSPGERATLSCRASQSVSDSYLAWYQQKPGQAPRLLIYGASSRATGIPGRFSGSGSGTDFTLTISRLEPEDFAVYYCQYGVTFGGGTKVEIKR reads 97

The measured Blocking % associated with SPK002M B1 antibody (antibody, human IgG1, kappa, V domains shown) VH: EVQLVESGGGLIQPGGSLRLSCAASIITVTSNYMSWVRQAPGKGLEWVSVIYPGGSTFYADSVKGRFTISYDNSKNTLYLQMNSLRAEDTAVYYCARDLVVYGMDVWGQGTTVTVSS VL: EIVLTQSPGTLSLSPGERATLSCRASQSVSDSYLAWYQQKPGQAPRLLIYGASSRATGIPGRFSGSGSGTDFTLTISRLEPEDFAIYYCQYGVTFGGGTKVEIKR reads 95

The measured Blocking % associated with SPK002M A5 antibody (antibody, human IgG1, kappa, V domains shown) VH: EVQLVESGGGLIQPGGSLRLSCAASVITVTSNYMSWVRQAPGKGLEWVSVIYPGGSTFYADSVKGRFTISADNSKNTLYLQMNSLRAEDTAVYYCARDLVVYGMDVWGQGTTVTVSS VL: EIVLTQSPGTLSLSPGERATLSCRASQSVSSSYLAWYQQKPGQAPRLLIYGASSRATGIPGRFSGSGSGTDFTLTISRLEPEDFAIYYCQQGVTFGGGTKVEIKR reads 96

The measured Blocking % associated with SPK002M C3 antibody (antibody, human IgG1, kappa, V domains shown) VH: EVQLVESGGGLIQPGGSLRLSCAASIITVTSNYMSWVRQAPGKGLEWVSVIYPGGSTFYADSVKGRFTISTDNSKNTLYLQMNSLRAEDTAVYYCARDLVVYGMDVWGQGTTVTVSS VL: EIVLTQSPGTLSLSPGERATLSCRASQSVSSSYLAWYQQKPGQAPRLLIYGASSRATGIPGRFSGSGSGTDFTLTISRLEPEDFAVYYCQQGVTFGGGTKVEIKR reads 94

The measured Blocking % associated with SPK002M A3 antibody (antibody, human IgG1, kappa, V domains shown) VH: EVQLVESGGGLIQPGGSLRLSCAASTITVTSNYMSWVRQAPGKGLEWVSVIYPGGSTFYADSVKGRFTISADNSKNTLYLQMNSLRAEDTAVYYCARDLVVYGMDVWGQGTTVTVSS VL: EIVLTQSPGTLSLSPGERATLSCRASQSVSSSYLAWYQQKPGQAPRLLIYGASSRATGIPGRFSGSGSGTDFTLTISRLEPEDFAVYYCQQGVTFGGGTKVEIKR reads 96

The measured Blocking % associated with SPK002M C2 antibody (antibody, human IgG1, kappa, V domains shown) VH: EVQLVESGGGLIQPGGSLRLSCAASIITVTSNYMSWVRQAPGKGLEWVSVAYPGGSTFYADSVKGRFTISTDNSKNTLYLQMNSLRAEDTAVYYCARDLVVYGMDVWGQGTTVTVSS VL: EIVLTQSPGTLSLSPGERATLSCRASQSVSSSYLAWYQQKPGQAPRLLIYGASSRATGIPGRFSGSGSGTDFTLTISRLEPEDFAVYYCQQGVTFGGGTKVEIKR reads 93

The measured Blocking % associated with SPK002M A4 antibody (antibody, human IgG1, kappa, V domains shown) VH: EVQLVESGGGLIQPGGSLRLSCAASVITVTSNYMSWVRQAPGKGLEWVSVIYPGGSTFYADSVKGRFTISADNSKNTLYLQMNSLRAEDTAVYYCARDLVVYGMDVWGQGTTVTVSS VL: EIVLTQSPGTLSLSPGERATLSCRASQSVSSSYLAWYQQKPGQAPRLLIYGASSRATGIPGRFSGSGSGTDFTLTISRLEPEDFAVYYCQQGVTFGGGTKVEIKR reads 96

The measured Blocking % associated with SPK002M B2 antibody (antibody, human IgG1, kappa, V domains shown) VH: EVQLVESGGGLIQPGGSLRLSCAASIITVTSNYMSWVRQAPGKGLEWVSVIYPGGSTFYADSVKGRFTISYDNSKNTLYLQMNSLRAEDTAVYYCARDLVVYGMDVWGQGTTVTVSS VL: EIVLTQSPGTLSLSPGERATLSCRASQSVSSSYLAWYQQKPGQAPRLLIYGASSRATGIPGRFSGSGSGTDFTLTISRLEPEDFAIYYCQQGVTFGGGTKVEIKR reads 91

The measured Blocking % associated with SPK002M A2 antibody (antibody, human IgG1, kappa, V domains shown) VH: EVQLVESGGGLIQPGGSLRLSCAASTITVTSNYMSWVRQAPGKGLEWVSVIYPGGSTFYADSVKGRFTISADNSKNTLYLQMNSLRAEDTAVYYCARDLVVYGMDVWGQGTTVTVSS VL: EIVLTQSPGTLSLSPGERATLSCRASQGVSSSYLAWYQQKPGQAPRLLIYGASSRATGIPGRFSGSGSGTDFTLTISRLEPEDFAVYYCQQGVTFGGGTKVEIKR reads 97
